- TESTED_ON: T1, KW27-8 (human CD39 mutant, C-terminal EGFP) (human, UniProt P49961 1-510)
- T1 construct: expressed on HEK293F cells; not shown: C-terminal EGFP fusion (vector pCMV3-GFPSpark)
- T1 chain: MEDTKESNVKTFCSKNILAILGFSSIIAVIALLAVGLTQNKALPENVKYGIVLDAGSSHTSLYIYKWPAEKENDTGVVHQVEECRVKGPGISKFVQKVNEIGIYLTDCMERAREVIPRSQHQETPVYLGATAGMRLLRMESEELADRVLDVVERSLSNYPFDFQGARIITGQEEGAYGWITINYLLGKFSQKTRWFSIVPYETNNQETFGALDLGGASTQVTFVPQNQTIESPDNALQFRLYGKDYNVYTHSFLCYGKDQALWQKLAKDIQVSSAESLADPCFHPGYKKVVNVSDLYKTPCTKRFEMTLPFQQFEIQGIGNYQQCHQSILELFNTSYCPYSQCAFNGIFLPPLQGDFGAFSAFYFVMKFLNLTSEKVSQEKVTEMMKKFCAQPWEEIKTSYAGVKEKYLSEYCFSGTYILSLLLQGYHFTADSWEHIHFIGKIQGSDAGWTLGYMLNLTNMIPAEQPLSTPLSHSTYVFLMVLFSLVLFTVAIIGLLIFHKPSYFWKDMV
- ASSAY_NAME: FACS, mutant-EGFP on HEK293F cells
METRIC_NAME: binding result

c34 (antibody, V domains shown, its making is not described; also called chimeric antibody c34) VH: EIQVQQSGPELVKPGASVKVSCKASGYSFTDYNMYWVKQSHGKSLEWIGFIDPYNGYTSYNQKFKGKATLTIDKSSSTAFMHLNSLTSEDSAVYYCAIYGYDDAYYFDYWGQGTTLTVSS VL: QIVLTQSPAIMSASPGEKVTITCSATSSVSYMHWFRQKPGTSPKLWIYSTSNLASGVPARFSGSGSGTSYSLTISRMAAEDAATYYCQQRITYPFTFGSGTKLEIT: binds
Antibody 9-8B (antibody, V domains shown) VH: QIQLVQSGPELKKPGETVKISCKASGYTFTHYGMNWVKQAPGKGLKWMGWINTYTGELTYADDFKGRFAFSLETSASTAYLQINNLKNEDTATYFCARRAYYRYDYVMDYWGQGTSVTVSS VL: DIVMTQSQKFMSTSVGDRVSVTCKASHNVGTNVAWYQQKPGQSPKALIYSASYRYSGVPGRFTGSGSGTDFTLTISNVQSEDLAEYFCHQYNNYPYTFGGGTKLEIK: binds
c35 (antibody, V domains shown, its making is not described; also called chimeric antibody c35) VH: EVRLQQSGAELVKPGASVKLSCTASGFNIEDTYVHWMKQRPEQGLEWIGRIDPAIDNSKYDPKFQGKATITAVSSSNTAYLQLSSLTSEDTAVYYCALYDGYNVYAMDYWGQGTSVTVSS VL: DIVMTQAAFSNPVTLGTSASISCRSSKNLLHSNGITYLYWYLQRPGQSPQLLIYRASTLASGVPNRFSGSESGTDFTLRISRVEAEDVGVYYCAQLLELPHTFGGGTKLEIK: binds
hu23.H5L5 (antibody, V domains shown, humanized c23) VH: QVQLVQSGAEVKKPGASVKVSCKASGYNLKDTFLHWVRQAPGQGLEWMGRIDPANGNIKYDPKFQGRVTITADTSANTAYMELISLRSEDTAVYYCANSPYYYGSGYRIFDVWGQGTTVTVSS VL: QIVLTQSPATLSLSPGERATLSCSAFSSVNYMHWYQQKPGQAPRLLIYTTSNLASGIPTRFSGSGSGTSYTLTISSLEPEDFAVYYCQQRSTYPFTFGQGTKLEIK: binds
